The origin of these recorded values is paper PMC4822800.

biological target: TTR in human plasma (Homo sapiens); construct: Human plasma from a healthy donor; assay: Urea-mediated denaturation gel-shift assay of TTR stabilization in human plasma (western blot of monomers); settings: 4 M urea, 18 h, 20°C, densitometry of the monomeric band, read-out: IC50 (half maximal inhibitory concentration of TTR dissociation into monomers)
pIC50: −log10 of the molar value.
Listing of entries alongside the reported pIC50.

* O=c1cc(-c2ccc(O)c(O)c2)oc2cc(O)cc(O)c12 | ~5.30
* O=c1cc(-c2ccc(O)c(O)c2)oc2cc(Cl)cc(O)c12 | ~4.19

Could you now look at the following compound, please?
Indicate the recorded pIC50 value for this compound: COc1cc(O)c2c(=O)cc(-c3ccc(O)c(O)c3)oc2c1
~3.98

###

target: TTR (Homo sapiens, UniProt P02766); construct: Expression of TTR was performed as described previously; made in house; host or cells: Escherichia coli BL21; assay: Microscale thermophoresis (MST) binding to NT-647-labelled TTR; conditions: 300 nM NT-647-labelled TTR, PBS, 5% DMSO, mean ± S.E.M. of three measurements, read-out: dissociation constant (Kd)
Listing of entries alongside the reported Kd.
Numbers only; they are read as nM.

• O=c1cc(-c2ccc(O)c(O)c2)oc2cc(O)cc(O)c12 [luteolin] = 150
• O=c1cc(-c2ccc(O)c(O)c2)oc2cc(Cl)cc(O)c12 [7-Cl-Lut] = 620

Indicate the recorded Kd value for this compound: COc1cc(O)c2c(=O)cc(-c3ccc(O)c(O)c3)oc2c1 [7-MeO-Lut]
390

###

Listing of entries alongside the reported half-life at 10 μM.
test: Glucuronidation / depletion kinetics in human liver microsomes (UHPLC); type: in vitro ADME; conditions: female, pooled human liver microsomes, alamethicin-activated; 10 μM compound, 0.1 mg/mL human liver microsomes, 5 mM UDPGA, 37°C, one-phase exponential decay; read-out: half-life (t1/2)
Numbers only; they are read as min.

* O=c1cc(-c2ccc(O)c(O)c2)oc2cc(O)cc(O)c12 [luteolin] | 16
* COc1cc(O)c2c(=O)cc(-c3ccc(O)c(O)c3)oc2c1 [7-MeO-Lut] | 36

Could you now look at the following compound, please?
Indicate the recorded half-life at 10 μM value for this compound: O=c1cc(-c2ccc(O)c(O)c2)oc2cc(Cl)cc(O)c12 [7-Cl-Lut]
52
